Give measured Total impurity for each item. Keep answers brief.
assay_overview: Comparative tests for stability of the crystalline form E and other crystalline forms (storage, total impurity and content)
Assay type: physicochemical
measurement_context: Freezing −20° C., month 12
Note: unit % is implicit; provide only the numeric part.

GET /value?item= C[C@@H](O)[C@H]1C(=O)N2C(C(=O)[O-])=C(S[C@@H]3CN[C@H](C(=O)Nc4cccc(C(=O)O)c4)C3)[C@H](C)[C@H]12.[Na+] [Crystalline form C, ertapenem sodium] &field=Total impurity returns 0.8

GET /value?item= C[C@@H](O)[C@H]1C(=O)N2C(C(=O)[O-])=C(S[C@@H]3CN[C@H](C(=O)Nc4cccc(C(=O)O)c4)C3)[C@H](C)[C@H]12.[Na+] [Crystalline form A, ertapenem sodium] &field=Total impurity returns 0.7

GET /value?item= C[C@@H](O)[C@H]1C(=O)N2C(C(=O)[O-])=C(S[C@@H]3CN[C@H](C(=O)Nc4cccc(C(=O)O)c4)C3)[C@H](C)[C@H]12.[Na+] (relative stereo) [Crystalline form E] &field=Total impurity returns 0.8

GET /value?item= C[C@@H](O)[C@H]1C(=O)N2C(C(=O)[O-])=C(S[C@@H]3CN[C@H](C(=O)Nc4cccc(C(=O)O)c4)C3)[C@H](C)[C@H]12.[Na+] [Crystalline form B, ertapenem sodium] &field=Total impurity returns 0.9

GET /value?item= C[C@@H](O)[C@H]1C(=O)N2C(C(=O)[O-])=C(S[C@@H]3CN[C@H](C(=O)Nc4cccc(C(=O)O)c4)C3)[C@H](C)[C@H]12.[Na+] [Amorphous, ertapenem sodium] &field=Total impurity returns 1.7

GET /value?item= C[C@@H](O)[C@H]1C(=O)N2C(C(=O)[O-])=C(S[C@@H]3CN[C@H](C(=O)Nc4cccc(C(=O)O)c4)C3)[C@H](C)[C@H]12.[Na+] [Crystalline form D, ertapenem sodium] &field=Total impurity returns 1.2
